composite z-score listing for selected molecules.
- TARGET OR TEST SYSTEM: Torsin-1A (Homo sapiens) (UniProt O14656)
- Sequence (O14656 whole entry, looked up): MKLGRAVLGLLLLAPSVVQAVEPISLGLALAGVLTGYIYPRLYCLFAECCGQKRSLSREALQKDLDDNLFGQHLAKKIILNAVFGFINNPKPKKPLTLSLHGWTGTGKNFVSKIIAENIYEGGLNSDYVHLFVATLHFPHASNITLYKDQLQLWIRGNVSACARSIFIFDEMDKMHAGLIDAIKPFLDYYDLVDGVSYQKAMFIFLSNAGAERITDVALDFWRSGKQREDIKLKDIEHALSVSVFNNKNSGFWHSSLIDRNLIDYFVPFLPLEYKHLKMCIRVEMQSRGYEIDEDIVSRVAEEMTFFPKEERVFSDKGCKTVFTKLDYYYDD
- EXPERIMENTAL PROTOCOL: torsin A binders from cell lysate, primary screen, small-molecule microarray, wild-type, 635/667 nm (AID 1149)
- DETAILS: COS7 hTOR1A-WT lysate, 635 nm fluorescence, higher = more signal
# respond with the number and nothing more

Would you please look over these solved cases?
O=C1[C@@]23C=C(Br)[C@H](C[C@@H]2COC3)[C@@]12CO2    0.283
COc1ccc(C#Cc2ccc3c(c2)[C@]2(C(=O)N3)[C@H](C(=O)Nc3nc4ccccc4s3)[C@H]3C(=O)O[C@H](c4ccccc4)[C@H](c4ccccc4)N3[C@@H]2c2ccccc2OCCO)cc1    0.076
[N-]=[N+]=Nc1ccccc1C[C@]1(C(=O)NCc2ccccc2)COC(c2ccc(OCCCO)cc2)=N1    0.413
C=C[C@H](C)[C@H](OC(=O)Nc1ccc(OC)cc1)c1ccc(OCCO)cc1    0.763
CN(C)C(=O)[C@]1(CCS(=O)(=O)c2ccccc2)N=C(c2ccc(OCCCO)cc2)O[C@@H]1c1ccccc1    0.957
COc1ccc(C(O)C2C=CC3C(=O)N(c4ccccc4)C(=O)C3N2Nc2ccccc2F)cc1 (configuration not stated)    0.216

Consider now this further molecule.
[ask] # composite z-score lookup, item O=C1O[C@H](c2ccccc2)[C@H](c2ccccc2)N2[C@H]1[C@@H](C(=O)Nc1nc3ccccc3s1)[C@]1(C(=O)Nc3ccc(C#CC4=CCCCC4)cc31)[C@H]2c1ccc(O)cc1
[reply] -0.253

###

- System: XIP peptide (Xip251-270)
- EXPERIMENTAL PROTOCOL: small-molecule binders of XIP peptide, primary screen, biochemical, small-molecule microarray, fluorescence 635/667 nm, 0.5 µg/mL protein (AID 1183)
- DETAILS: small-molecule microarray binding, fluorescence 635 nm; higher = more signal
Where composite z-score equals or exceeds 0.5, the correct label is condition met; where it does not, the label is condition not met.

// below: answered molecules
COC(=O)[C@@]1(Cc2ccc(OC)cc2)[C@H]2c3cc(C(=O)N4CCCC4)n(Cc4ccc(OC(F)(F)F)cc4)c3C[C@H]2CN1C(=O)c1ccccc1    condition met
Cc1ccc(S[C@]2(C(=O)NCc3ccccc3)CC(=O)N(Cc3cc(C(F)(F)F)cc(C(F)(F)F)c3)[C@@H]2c2ccc(CO)cc2I)cc1    condition not met
COc1cc(NN2C(C(O)c3cc(OC)c(OC)c(OC)c3)C=CC3C(=O)N(c4ccccc4)C(=O)C32)cc(OC)c1OC (stereo not given)    condition met
COCC1=C2[C@@H](CCc3ccccc3)OB(O)C[C@@H]2[C@@H]2C(=O)N(C)C(=O)[C@@H]2C1    condition met
O=C1N[C@@H](Cc2ccccc2)C(=O)N2[C@@H]1C[C@@H](C(=O)O)[C@H]2c1ccc(O)cc1    condition met
C=CC[C@H](OC(=O)Nc1ccc(SC)cc1)c1ccc(OCCO)cc1    condition not met
COC(=O)C(CC#Cc1ccc2c(c1)[C@]1(C(=O)N2)[C@H](C(=O)Nc2nc3ccccc3s2)[C@H]2C(=O)O[C@H](c3ccccc3)[C@H](c3ccccc3)N2[C@@H]1c1ccc(OCCO)cc1)C(=O)OC    condition met
O=C1NC(=O)C2C1C=CC(C(O)c1ccccn1)N2Nc1ccc(Cl)cc1Cl (stereo not given)    condition not met
CCc1cccc(NC(=O)O[C@H]2[C@H](OC(=O)Nc3ccccc3)[C@H](OC(=O)Nc3ccccc3)[C@@H](OC)O[C@@H]2CO)c1    condition met
COCCOC(=O)N1C(=O)[C@@]2(c3cc(C#CC4(O)CCCCCC4)ccc31)[C@H](c1ccc(OCCO)cc1)N1[C@H](c3ccccc3)[C@H](c3ccccc3)OC(=O)[C@H]1[C@@H]2C(=O)Nc1nc2ccccc2s1    condition met

[ask] Say whether COCCCNC(=O)[C@@]1(c2ccc([N+](=O)[O-])cc2)CC(=O)N(C(C)C)[C@@H]1c1ccc(CO)cc1 shows composite z-score of 0.5 or more.
[reply] condition met

[ask] Can you check CN(C)C(=O)[C@@]1(CCC(=O)OC(C)(C)C)N=C(c2ccc(OCCCO)cc2)O[C@H]1c1ccccc1CN=[N+]=[N-] next?
[reply] condition not met

[ask] Next record, please: C=C[C@@H](OC)[C@H](OC(=O)Nc1ccc(SC)cc1)c1ccc(OCCO)cc1
[reply] condition met

[ask] Also CCOC(=O)C1=CCC(c2ccco2)N(S(=O)(=O)c2ccc(C)cc2)C1 (stereo not given) ?
[reply] condition met

[ask] Then this molecule: O=C(CS)NCCCCCCNC(=O)[C@@H]1C[C@@H]2C(=O)NCC(=O)N2[C@@H]1c1ccc(O)cc1
[reply] condition met

###

- EXPERIMENTAL PROTOCOL: P. aeruginosa biofilm formation inhibitors, primary screen, PAO1 strain, BacTiter-Glo luminescence, LB-PBS (AID 1144)
- DETAILS: 12 h, higher = more signal
ASSAY ENDPOINT: z-score
// response body must contain only the number

A selection of reference data follows.
O=C(CS)NCCCCCCNC(=O)[C@@H]1C[C@@H]2C(=O)NCC(=O)N2[C@@H]1c1ccc(O)cc1    -1.26
C=CCNC(=O)[C@H]1[C@@H]2C(=O)O[C@@H](c3ccccc3)[C@@H](c3ccccc3)N2[C@@H](c2ccc(OCCO)cc2)[C@]12C(=O)Nc1ccc(C#CCNC(N)=O)cc12    -0.78
Cc1ccc(S[C@]2(C(=O)NC(C)C)CC(=O)N(Cc3ccccc3Cl)[C@@H]2c2ccc(CO)cc2)cc1    -0.141
CCOC(=O)C[C@H]1[C@H](OC(=O)c2ccccc2-c2ccccc2)[C@@H](NC(=O)c2ccc3ccccc3n2)c2cc(OCCCO)ccc2N1C(=O)c1ccccc1    1.12
COCCOC(=O)N1C(=O)[C@@]2(c3cc(C#CCNC(N)=O)ccc31)[C@H](c1ccc(O)cc1)N1[C@H](c3ccccc3)[C@H](c3ccccc3)OC(=O)[C@H]1[C@@H]2C(=O)N1CCN(c2ncccn2)CC1    -0.648
CN(C)C(=O)[C@@]1(Cc2ccccc2)COC(c2ccc(OCCCO)cc2)=N1    0.59
COc1ccc(C(O)C2C=CC3C(=O)N(c4ccccc4)C(=O)C3N2Nc2ccccc2)cc1 (stereo not given)    -0.0851
COCC1C2CC[C@H]3C(OCc4ccc(OC)cc4)OC[C@]4(C)[C@H]3C2=C(CN4C(=O)OC(C)(C)C)[C@H](C)C1COC (stereo not given in full)    0.413
COCC(=C=CC[C@H](O)c1cccc(OCCO)c1)C[C@H](O)COCc1ccccc1    -0.218
CC(C)c1ccc(NN2C(C(O)Cc3ccccc3)C=CC3C(=O)N(c4ccccc4)C(=O)C32)cc1 (stereo not given)    -0.221

[ask] Which z-score value is on record for CCOC(=O)C1=CCC(c2ccco2)N(S(=O)(=O)c2ccc(C)cc2)C1 (stereo not given) ?
[reply] -1.65

[ask] And COC(=O)[C@@]1(Cc2ccccc2CN=[N+]=[N-])N=C(c2ccc(OCCCO)cc2)O[C@H]1c1ccccc1CN=[N+]=[N-] ?
[reply] -0.166

[ask] Proceed to C=C(COC)/C(=C/C[C@@H](OC(=O)c1ccncc1)c1ccccc1OCCO)c1cc(C(=O)OC)ccc1OC
[reply] 0.454

[ask] Also O=C1C2C=CC(C(O)c3cc(C(F)(F)F)cc(C(F)(F)F)c3)N(Nc3ccccc3F)C2C(=O)N1c1ccccc1 (stereo not given) ?
[reply] -0.476

###

Measured z-score values are reported for all entries that follow.
- EXPERIMENTAL PROTOCOL: FRG1 promoter luciferase signal modulators, primary screen, FRG1 inhibition for FSHD, cell-based, C2C12 myotubes, firefly/Renilla luciferase, luminescence (AID 1084)
- DETAILS: higher = more signal, called active from +8 up or from −8 down
Just the number.

Worked examples follow.
CC(C)[Si]1(C(C)C)OCc2cc(-c3ccc(-c4ccc(Cl)c(Cl)c4)o3)nc(CCc3ccccc3)c21    0.999
CN(C)CCCNC(=O)[C@@H]1c2ccccc2C(=O)N(C2CCCCC2)[C@H]1c1ccc(CO)cc1    -0.988
CC1(C)C(=O)C(c2ccccc2)=C2CN3C(=O)N(CCc4ccccc4)C(=O)C3(Cc3ccc(F)cc3)C=C21 (centres undefined)    0.927

Now let's try a different one.
[ask] # input compound: CCOC(=O)C1=CC[C@@H](c2ccccc2)N(S(=O)(=O)c2ccc(C)cc2)[C@H]1c1cccc(OC)c1 ; wanted: its z-score
[reply] -2.57

###

- TARGET OR TEST SYSTEM: Epidermal growth factor receptor (Homo sapiens)
- EXPERIMENTAL PROTOCOL: EGFR binders on small-molecule microarrays, primary screen, biochemical, small-molecule microarray, 635 nm fluorescence (AID 1104);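 further: score merges 667 nm emission intensity with spot signal to noise over triplicate slides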
- DETAILS: EGFR binding, higher = more signal
Classification field: enter yes (1) for composite z-score values not below -0.2, no (0) for values below it.

Before answering, review these 8 worked examples.
C=C(COC)/C(=C/C[C@@H](OC(C)=O)c1ccc(CO)o1)c1cc(C(=O)OC)ccc1OC    no (0)
[N-]=[N+]=NC[C@H](Cc1ccccc1)NC(=O)c1ccccc1    yes (1)
C=CC[C@H](OC(=O)Nc1ccc(SC)cc1)c1ccc(OCCO)cc1    no (0)
CC(C)C(=C=CC[C@@H](O)c1cccc(OCCO)c1)C[C@@H](O)c1ccccn1    no (0)
[N-]=[N+]=NCc1ccccc1[C@@H]1OC(c2ccc(OCCCO)cc2)=N[C@]1(Cc1ccccc1N=[N+]=[N-])C(=O)N1CCCCC1    yes (1)
CC(C)C(=C=CC[C@@H](O)c1cccc(OCCO)c1)C[C@@H](O)COCc1ccccc1    no (0)
Nc1cc(Br)ccc1C(=O)O    yes (1)
O=C1c2ccccc2[C@](Cc2ccccc2I)(C(=O)NC2CC2)[C@H](c2ccc(CO)cc2)N1Cc1ccccc1C(F)(F)F    no (0)

[ask] Check this molecule for composite z-score at or above -0.2: CC1CC/C=C\[C@H]2OC34C=CCN(CCN5CCOCC5)C(=O)[C@H]3N(C(C)CO)C(=O)[C@@H]4C2C(=O)O1 (stereo partly specified)
[reply] no (0)

[ask] What about COC(=O)C1=CC(CCCO)=CC(c2ccc(CN3CCCC3)cc2)N(Cc2cc3c(cc2Br)OCO3)C=C1C(=O)OC (stereo unspecified) ?
[reply] yes (1)

[ask] O=C1O[C@H](c2ccccc2)[C@H](c2ccccc2)N2[C@H]1[C@@H](C(=O)O)[C@]1(C(=O)Nc3ccc(C#CC4(O)CCCCCC4)cc31)[C@H]2c1ccc(O)cc1 , same question.
[reply] yes (1)

[ask] Also, O=C1NC(=O)C2C1C=CC(C(O)c1ccccn1)N2Nc1ccc(Cl)cc1Cl (stereo unspecified) please.
[reply] yes (1)

[ask] Moving on to COC(=O)[C@@]1(Cc2ccc(OC)cc2)[C@H]2c3cc(C(=O)N4CCCC4)n(Cc4ccc(OC(F)(F)F)cc4)c3C[C@H]2CN1C(=O)c1ccccc1
[reply] yes (1)

[ask] Could you do the same for CCCCCN1CC=CC23O[C@@H]4C=CCOC(=O)[C@@H]4[C@H]2C(=O)N(CCO)[C@@H]3C1=O (stereo partly specified) , please?
[reply] no (0)

[ask] Field entry: C=C(/C(=C/C[C@@H](OC(=O)c1ccncc1)c1cccc(OCCO)c1)c1cnc2ccccc2c1)C(C)C
[reply] yes (1)

[ask] Now the molecule COCCOC(=O)N1C(=O)[C@@]2(c3cc(C#CCCO)ccc31)[C@H](c1ccccc1OCCO)N1[C@H](c3ccccc3)[C@H](c3ccccc3)OC(=O)[C@H]1[C@@H]2C(=O)N1CCCCCCC1
[reply] yes (1)
